# Tgt: DPAP1 (Plasmodium falciparum, UniProt Q8IIJ9)
# Sequence (Q8IIJ9 whole entry, looked up): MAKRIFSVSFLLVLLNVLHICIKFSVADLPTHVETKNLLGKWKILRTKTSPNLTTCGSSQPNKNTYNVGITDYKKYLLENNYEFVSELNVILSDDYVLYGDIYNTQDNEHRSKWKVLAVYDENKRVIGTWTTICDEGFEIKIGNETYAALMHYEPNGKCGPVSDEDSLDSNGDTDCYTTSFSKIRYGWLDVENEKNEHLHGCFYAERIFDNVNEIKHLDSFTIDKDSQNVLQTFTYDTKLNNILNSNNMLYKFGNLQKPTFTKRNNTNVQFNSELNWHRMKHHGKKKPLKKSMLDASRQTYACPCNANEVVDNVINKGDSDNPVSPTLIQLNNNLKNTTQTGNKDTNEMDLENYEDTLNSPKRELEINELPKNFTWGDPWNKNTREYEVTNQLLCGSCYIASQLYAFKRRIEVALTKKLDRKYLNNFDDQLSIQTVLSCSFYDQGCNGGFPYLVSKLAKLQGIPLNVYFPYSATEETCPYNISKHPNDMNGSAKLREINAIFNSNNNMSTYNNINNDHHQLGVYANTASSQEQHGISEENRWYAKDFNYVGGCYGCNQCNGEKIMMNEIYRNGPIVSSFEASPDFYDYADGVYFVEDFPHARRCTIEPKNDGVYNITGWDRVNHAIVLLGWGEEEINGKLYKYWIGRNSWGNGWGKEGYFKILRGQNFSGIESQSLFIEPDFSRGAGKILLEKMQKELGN
# Experiment Description: primary screen, percent inhibition; higher = more effect of the substance;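 also: 30 min substrate incubation versus DMSO and 10 µM JCP410 controls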
# Set-up: species or system P. falciparum D10 trophozoite lysates; single well
# Protocol: HTS was performed in black 384-well plates. The first and last two columns of each plate contained our negative (DMSO) and positive (10 μM JCP410) controls, and the 20 central columns the test compounds at 10 μM. […] After 30 min, the reaction was quenched with 20 μL of 0.5 M acetic acid, and the fluorescent intensity measured at 523 nm (λex = 492 nm) using an Analyst HT multimode plate reader (Molecular Devices).
The whole screen tested about 110,000 compounds, of which about 230 (0.21%) showed an effect of 50% or more. The list comes from a sample in which strong results are over-represented; it also holds close analogues and randomly drawn compounds.
Test Readout: % Inhibition @ 10 uM

>>> print(df.to_string())
                                    compound  result
 0  Cc1ccc(C(=O)NCc2nnc(SCC(=O)Nc3nccs3)n2-c2ccccc2)cc1C  -4.97%
 1  CC(C)n1c(NC2CCCCC2)nc2c1c(=O)[nH]c(=O)n2C  -1.11%
 2  COc1cc2c(CC(=O)Nc3ccccc3)c(O)c(C)c(NCc3ccccc3)c2cc1OC   13.4%
 3  Cc1ccc(C)c(-n2c(CNC(=O)c3cccc(F)c3)nnc2SCC(=O)Nc2nccs2)c1   73.7%
 4  COc1cc2c(NCc3ccccc3)cc(O)c(CC(=O)Nc3ccccc3)c2cc1OC   66.3%
 5  CCCCNc1cc(O)c(CC(=O)Nc2ccccc2)c2cc(OC)c(OC)cc12   25.7%
 6  COc1cc(NC(=O)C(C)Oc2ccccc2)cc(OC)c1 (centres unmarked)   -2.8%
 7  COC(=O)Nc1ccc(S(=O)(=O)N2CCN(c3ccccc3OC)CC2)cc1  -5.13%
 8               Cc1nc2c(nc(C)n2-c2ccccc2)s1   2.92%
 9   CCOc1cc(Br)c(C=C2C(=O)NC(=O)NC2=O)cc1OC  -2.39%
10    COc1ccc(OC)c(NC(=O)c2ccc(OC(C)C)cc2)c1  -1.88%

----------
# Tgt: DPAP1 (Plasmodium falciparum, UniProt Q8IIJ9)
# Experiment Description: primary screen, percent inhibition; higher = more effect of the substance;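 also: 30 min substrate incubation versus DMSO and 10 µM JCP410 controls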
# Parameters: species or system P. falciparum D10 trophozoite lysates; single well
Screen size: about 110,000 compounds; about 230 (0.21%) showed an effect of 50% or more. The list comes from a sample in which strong results are over-represented; it also holds close analogues and randomly drawn compounds.
Measured % Inhibition @ 10 uM, listed per entry.
Test Readout: % Inhibition @ 10 uM (%)

>>> df
                                    compound          test_readout  units_text  quantitative_readout
 0  Cc1ccc(CNC(=O)C2CCCN(S(=O)(=O)c3cccc4nonc34)C2)cc1 (stereo not drawn)  % Inhibition @ 10 uM           %                -0.668
 1    Cc1ccc(CNC(=O)c2noc3c2COc2ccccc2-3)cc1  % Inhibition @ 10 uM           %                  72.8
 2  O=C(NCc1ccc2c(c1)OCO2)c1noc2c1COc1ccccc1-2  % Inhibition @ 10 uM           %                  73.5
 3               CCn1c2ccc(F)cc2c2nnc(S)nc21  % Inhibition @ 10 uM           %                  32.8
 4  Cc1ccc2c(c1)-c1onc(C(=O)NCc3ccccc3Cl)c1CO2  % Inhibition @ 10 uM           %                 0.589
 5  Cc1onc(-c2ccccc2Cl)c1C(=O)NCc1ccc2c(c1)OCO2  % Inhibition @ 10 uM           %                 -6.92
 6       Fc1ccc2c(c1)c1nnc(S)nc1n2CCc1ccccc1  % Inhibition @ 10 uM           %                  10.9
 7                  CCn1c2ccccc2c2nnc(S)nc21  % Inhibition @ 10 uM           %                    38
 8             CCCCn1c2ccc(C)cc2c2nnc(S)nc21  % Inhibition @ 10 uM           %                    61
 9  COc1ccc(CNC(=O)c2noc3c2COc2ccc(C)cc2-3)cc1  % Inhibition @ 10 uM           %                 -3.17
10  O=C(NCc1ccc2c(c1)OCO2)c1cc(-c2ccccc2F)no1  % Inhibition @ 10 uM           %                 -2.07
11    O=C(NCc1ccc(F)cc1)c1noc2c1COc1ccccc1-2  % Inhibition @ 10 uM           %                  69.7

----------
# Tgt: DPAP1 (Plasmodium falciparum)
# Experiment Description: primary screen, percent inhibition; read by cleavage of a fluorogenic dipeptide substrate; higher = more effect of the substance
# Design: species or system P. falciparum D10 trophozoite lysates; single well
In all, about 110,000 compounds went through this assay and about 230 (0.21%) showed an effect of 50% or more. Shown is part of a subset that was picked to be rich in strong results.
Measured % Inhibition @ 10 uM, listed per entry.
Test Readout: % Inhibition @ 10 uM (%)

In [3]: df
Out[3]:
                                    compound  units_text  quantitative_readout
 0             Cc1cc(C)c(C#N)c(SCc2ccccc2)n1           %                -0.305
 1  Cc1ccc(N(CC(=O)Nc2ccc(CC#N)cc2)S(=O)(=O)c2ccccc2)c(C)c1           %                 -6.77
 2  CCOC(=O)N1CCN(C(=O)CSc2nc(-c3ccc(C)cc3)cn2-c2ccc(OC)cc2)CC1           %                  77.3
 3  COc1cc(C(=O)NCc2cn3cccc(C)c3n2)cc(OC)c1OC           %                   3.3
 4  OCC(O)Cn1c2ccccc2c2ccccc21 (stereo not drawn)           %                  1.44
 5  O=C(O)CCC(=O)Nc1ccc(S(=O)(=O)NC2CCCCC2)cc1           %                  1.49
 6  CC(CCCC(C)(C)O)NC(C)Cc1ccc(F)cc1 (stereo not drawn)           %                  4.68
 7  O=C(c1ccc(Oc2ccccc2)cc1)c1nc2c(n1O)CCCC2           %                  1.74
 8            CCCCCCc1cc2cc(C#N)c(=O)oc2cc1O           %                  67.5
 9                   CCOc1cc(CN2CCSCC2)ccc1O           %                  96.4
10  CN(CC(=O)NC1CCCCCC1)S(=O)(=O)c1ccc(F)cc1           %                  3.17
11  CCCCSCCCNC(=O)C1CCC(CNS(=O)(=O)c2ccc(C)cc2)CC1 (stereo not drawn)           %                  5.47
12      COc1ccc(C(=O)N2CCC(N3CCCCCC3)CC2)cc1           %                  1.91
13  Cc1cccc(C)c1-n1c(C)cc(/C=C2\C(=N)N3N=C(S(C)(=O)=O)SC3=NC2=O)c1C           %                   5.1
14                 CN(Cc1ccccc1)Cc1ccc(O)cc1           %                 -1.78
15        O=C(O)CN1C(=O)c2cc(Cl)c(Cl)cc2C1=O           %                  3.67
16  COc1ccc(-n2cc(-c3ccc(C)cc3)nc2SCC(=O)NCC2CCCO2)cc1 (stereo not drawn)           %                  4.33
17            CN(C)c1ccc(NC(=O)NC2CCCCC2)cc1           %                 -12.2
18  Cc1cccc(-n2c(C)cc(/C=C3\C(=N)N4N=C(S(C)(=O)=O)SC4=NC3=O)c2C)c1           %                  52.6
19  Cc1cc(C)n(CC(O)Cn2c3ccccc3c3ccccc32)n1 (stereo not drawn)           %                 -10.2
20            Cc1cc(C)c(C#N)c(SCc2ccccc2F)n1           %                  40.7
21  Cc1ccc(CNc2nc3ccccc3c3nc(-c4ccncc4)nn23)cc1           %                 0.981
22       O=[N+]([O-])c1c(NCCO)cc(Cl)c2nonc12           %                  5.66
23  Cc1nn(C)c2c1c(-c1ccccc1)cc(=O)n2Cc1cccc(F)c1           %                  2.65
